Assay: BSK_CASM3C_Proliferation: Cell Proliferation Assessment in the BioMAP Diversity Plus: CASM3C Assay (AID 2283047);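 further: sulforhodamine B total protein stain as relative cell number at 560 nm; sub-confluent cells exposed 48 h before staining; fitted both ways against DMSO so gain or loss of cell number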
Conditions: primary human coronary artery smooth muscle cells
Active and inactive are the calls of the source. How the source made its calls: active means hit-call score of the fitted dose curve at least 0.9, where 1 is the maximum; inactive means score below 0.9.
Possible outcomes: active, inactive

compound=O=S(=O)(O)CCC(F)(F)C(F)(F)C(F)(F)C(F)(F)F assigned_label=inactive
compound=NCC(F)(F)C(F)(F)C(F)(F)C(F)(F)C(F)(F)C(F)(F)F assigned_label=inactive
compound=O=C(O)CCC(F)(F)C(F)(F)C(F)(F)C(F)(F)C(F)(F)C(F)(F)C(F)(F)F assigned_label=inactive
compound=CCN(CC)c1ccc2c(c1)Oc1cc(N(CC)CC)ccc1C21OC(=O)c2ccccc21 assigned_label=inactive
compound=Nc1cc([N+](=O)[O-])cc(Cl)c1O assigned_label=inactive
compound=Cc1ccc(S(=O)(=O)C(I)I)cc1 assigned_label=active
compound=CCOC(=O)CC(=O)C(F)(F)C(F)(F)F assigned_label=inactive
compound=O=C(Cl)C(F)(F)C(F)(F)C(F)(F)C(F)(F)C(F)(F)C(F)(F)C(F)(F)F assigned_label=inactive
compound=O=C(O)CCC(F)(F)C(F)(F)C(F)(F)F assigned_label=inactive
compound=O=C=Nc1cccc2c(N=C=O)cccc12 assigned_label=inactive
compound=NC(=O)C(F)(F)C(F)(F)C(F)(F)C(F)(F)C(F)(F)C(F)(F)C(F)(F)F assigned_label=inactive
compound=CCN(CC)c1ccc(C=O)c(O)c1 assigned_label=inactive
compound=NC(=O)C(F)(F)C(F)(F)C(F)(F)C(F)F assigned_label=inactive
compound=CCN(CC)c1ccc(C=O)cc1 assigned_label=inactive
compound=O=C(O)C(F)(F)C(F)(F)C(F)(F)C(F)(F)C(F)(F)C(F)(F)C(F)F assigned_label=inactive
compound=NC(O)(C(F)(F)F)C(F)(F)F assigned_label=inactive
compound=Cc1ccc(O)c(-n2nc3ccccc3n2)c1 assigned_label=inactive
compound=O=C(O)C(F)(F)C(F)(F)C(F)(F)C(=O)O assigned_label=inactive
compound=NS(=O)(=O)C(F)(F)C(F)(F)C(F)(F)C(F)(F)C(F)(F)C(F)(F)F assigned_label=inactive
compound=CCN(CC)c1ccc(N=Nc2ccccc2)cc1 assigned_label=active
compound=CCOC(C=C(C)CCC=C(C)C)OCC assigned_label=active
compound="OCC(O)CC(F)(F)C(F)(F)C(F)(F)C(F)(F)F (centres undefined)" assigned_label=inactive
compound=O=C(Cl)C(F)(F)C(F)(F)C(F)(F)C(F)(F)C(F)(F)C(F)(F)F assigned_label=inactive
compound=C[Si](Cl)(Cl)CCC(F)(F)C(F)(F)C(F)(F)C(F)(F)C(F)(F)C(F)(F)F assigned_label=inactive

* * *

Read-out: CD69, CD69 (gene 969)
Experiment: BSK_SAg_CD69: BioMAP Diversity Plus: SAg Assay for CD69 Biomarker Activity (AID 2283089)
Conditions: primary human HUVEC with PBMC; actives raise or lower the signal
Protocol: BSK_SAg is a cell-based, multiplexed-readout assay that uses umbilical vein endothelium and peripheral blood mononuclear cells, a human vascular primary cell co-culture, with measurements taken at 24 hours after chemical dosing in a 96-well plate.BSK_SAg_CD69 is one of 10 assay component(s) measured or calculated from the BSK_SAg assay. […] This assay endpoint, BSK_SAg_CD69, was analyzed with bidirectional fitting relative to DMSO as the negative control and baseline of activity. […]
Calls of active or inactive are those of the source. How the source made its calls: active means hit-call score of the fitted dose curve at least 0.9, where 1 is the maximum; inactive means score below 0.9.
Possible outcomes: class 1 = active, class 0 = inactive

molecule=NC(=O)C(F)(F)C(F)(F)C(F)(F)F assigned_label="class 0"
molecule="CC(C)CCCC(C)CCO (stereo unspecified)" assigned_label="class 0"
molecule=O=C(O)CCC(F)(F)C(F)(F)C(F)(F)F assigned_label="class 0"
molecule=Cc1ccc(S(=O)(=O)C(I)I)cc1 assigned_label="class 1"
molecule="OCC(O)CC(F)(F)C(F)(F)C(F)(F)C(F)(F)F (stereo unspecified)" assigned_label="class 0"
molecule=NC(=O)C(F)(F)C(F)(F)C(F)(F)C(F)(F)C(N)=O assigned_label="class 0"
molecule=CCOC(=O)CC(=O)C(F)(F)C(F)(F)F assigned_label="class 0"
molecule=CC(C)(C)c1cc(CCC(=O)NCCCCCCNC(=O)CCc2cc(C(C)(C)C)c(O)c(C(C)(C)C)c2)cc(C(C)(C)C)c1O assigned_label="class 0"
molecule=O=C1c2c(O)ccc(Nc3ccc(CCO)cc3)c2C(=O)c2c([N+](=O)[O-])ccc(O)c21 assigned_label="class 1"
molecule=CNS(=O)(=O)C(F)(F)C(F)(F)C(F)(F)C(F)(F)C(F)(F)C(F)(F)C(F)(F)C(F)(F)F assigned_label="class 0"
molecule=Cc1cnccn1 assigned_label="class 0"
molecule=C[C@]12CC[C@H]3C(=CCc4cc(O)ccc43)[C@@H]1CCC2=O assigned_label="class 0"
molecule=CCN(CC)c1ccc(C=O)cc1 assigned_label="class 0"
molecule=CN(C(=O)C(F)(F)C(F)(F)C(F)(F)F)[Si](C)(C)C assigned_label="class 0"
molecule=OC(O)C(F)(F)C(F)(F)F assigned_label="class 0"
molecule=NC(O)(C(F)(F)F)C(F)(F)F assigned_label="class 0"

* * *

Read-out: CD69, CD69 (gene 969)
Assay: BSK_SAg_CD69: BioMAP Diversity Plus: SAg Assay for CD69 Biomarker Activity (AID 2283089)
Conditions: primary human HUVEC with PBMC; actives raise or lower the signal
The source made the active and inactive calls. The calls were made as follows: active = hit-call score of the fitted dose curve at least 0.9, where 1 is the maximum; inactive = score below 0.9.
Possible outcomes: true = active, false = inactive

compound=Nc1cc([N+](=O)[O-])cc(Cl)c1O assigned_label=false
compound=O=C(Cl)C(F)(F)C(F)(F)C(F)(F)C(F)(F)C(F)(F)C(F)(F)C(F)(F)F assigned_label=false
compound="CC1=CC2C3C=CC(C3)C2C1C (stereo unspecified)" assigned_label=false
compound=O=C=Nc1cccc2c(N=C=O)cccc12 assigned_label=false
compound=O=S(=O)(OCC(F)(F)F)C(F)(F)C(F)(F)C(F)(F)C(F)(F)F assigned_label=false
compound=CCN(CC)c1ccc(N=Nc2ccccc2)cc1 assigned_label=true

* * *

Molecular target: Estrogen receptor (Homo sapiens)
Experiment: ATG_ERa_TRANS: Attagene TRANS-FACTORIAL HepG2 Assay for human Estrogen Receptor alpha (ERa) (AID 2282970)
Conditions: HepG2 Attagene TRANS ERa GAL4 reporter, mRNA
Results filed as inconclusive are left out. Calls of active or inactive are those of the source. The calls were made as follows: active = hit-call score of the fitted dose curve at least 0.9, where 1 is the maximum; inconclusive = response in the unintended direction; inactive = score below 0.9.
Possible outcomes: 1 (yes) for active, 0 (no) for inactive

molecule="COC(F)(C(F)F)C(F)(F)F (stereo unspecified)" subject_of_test="Estrogen receptor (Homo sapiens)" assigned_label="0 (no)"
molecule=CCCCCCCCCCCCCCCCC subject_of_test="Estrogen receptor (Homo sapiens)" assigned_label="0 (no)"
molecule=O=C(O)C(F)(F)C(F)(F)C(F)(F)C(F)(F)C(F)(F)C(F)(F)C(F)F subject_of_test="Estrogen receptor (Homo sapiens)" assigned_label="1 (yes)"
molecule=CCN(CC)c1ccc2c(c1)Oc1cc(N(CC)CC)ccc1C21OC(=O)c2ccccc21 subject_of_test="Estrogen receptor (Homo sapiens)" assigned_label="0 (no)"
molecule=O=C1c2ccccc2C(=O)c2c(Cl)cccc21 subject_of_test="Estrogen receptor (Homo sapiens)" assigned_label="1 (yes)"
molecule=CCOC(C=C(C)CCC=C(C)C)OCC subject_of_test="Estrogen receptor (Homo sapiens)" assigned_label="0 (no)"
molecule=O=C(O)C(F)(F)C(F)(F)C(F)(F)OC(F)(C(F)(F)F)C(F)(F)F subject_of_test="Estrogen receptor (Homo sapiens)" assigned_label="0 (no)"
molecule=OCC(F)(F)C(F)(F)C(F)(F)C(F)(F)C(F)(F)C(F)(F)CO subject_of_test="Estrogen receptor (Homo sapiens)" assigned_label="1 (yes)"
molecule=OCC(F)(F)C(F)(F)C(F)(F)CO subject_of_test="Estrogen receptor (Homo sapiens)" assigned_label="0 (no)"
molecule=O=C(O)C(F)(F)C(F)(F)C(F)(F)C(=O)O subject_of_test="Estrogen receptor (Homo sapiens)" assigned_label="0 (no)"
molecule="CCc1cccc(C)c1N(C(=O)C(=O)O)C(C)COC (stereo unspecified)" subject_of_test="Estrogen receptor (Homo sapiens)" assigned_label="0 (no)"
molecule=O=C(Cl)C(F)(F)C(F)(F)C(F)(F)C(F)(F)C(F)(F)C(F)(F)C(F)(F)F subject_of_test="Estrogen receptor (Homo sapiens)" assigned_label="1 (yes)"
molecule=Cc1cc(C)c(O)c(C(C)(C)C)c1 subject_of_test="Estrogen receptor (Homo sapiens)" assigned_label="0 (no)"
molecule=O=C(O)C(F)(F)OC(F)(F)C(F)(F)OC(F)(F)C(F)(F)OC(F)(F)F subject_of_test="Estrogen receptor (Homo sapiens)" assigned_label="0 (no)"
molecule=CSc1ccc(Cl)cc1 subject_of_test="Estrogen receptor (Homo sapiens)" assigned_label="0 (no)"
molecule=Oc1ccc2c(c1)CCC2 subject_of_test="Estrogen receptor (Homo sapiens)" assigned_label="1 (yes)"
molecule=NCC(F)(F)C(F)(F)C(F)(F)C(F)(F)C(F)(F)C(F)(F)C(F)(F)C(F)(F)F subject_of_test="Estrogen receptor (Homo sapiens)" assigned_label="0 (no)"
molecule=Cc1ccc(S(=O)(=O)C(I)I)cc1 subject_of_test="Estrogen receptor (Homo sapiens)" assigned_label="0 (no)"
molecule=CN(C)C(C)(C)CO subject_of_test="Estrogen receptor (Homo sapiens)" assigned_label="0 (no)"
molecule=OC(O)C(F)(F)C(F)(F)F subject_of_test="Estrogen receptor (Homo sapiens)" assigned_label="0 (no)"
molecule=FC(F)(F)C(F)(F)C(F)(F)C(F)(F)C(F)(F)C(F)(F)C(F)(F)CCI subject_of_test="Estrogen receptor (Homo sapiens)" assigned_label="1 (yes)"
molecule=CC(C)Nc1ccc(NC(C)C)c2c1C(=O)c1ccccc1C2=O subject_of_test="Estrogen receptor (Homo sapiens)" assigned_label="0 (no)"
molecule=CCN(CCO)S(=O)(=O)C(F)(F)C(F)(F)C(F)(F)C(F)(F)C(F)(F)C(F)(F)C(F)(F)C(F)(F)F subject_of_test="Estrogen receptor (Homo sapiens)" assigned_label="0 (no)"
molecule=Brc1ccccn1 subject_of_test="Estrogen receptor (Homo sapiens)" assigned_label="0 (no)"
molecule="CCC(Cc1c(I)cc(I)c(N)c1I)C(=O)O (stereo unspecified)" subject_of_test="Estrogen receptor (Homo sapiens)" assigned_label="1 (yes)"
molecule=Brc1nc2ccccc2s1 subject_of_test="Estrogen receptor (Homo sapiens)" assigned_label="0 (no)"
